# TESTED_SYSTEM: CDK9 (Homo sapiens, UniProt P50750)
# Construct: host or cells: HEK293-CDK9-Hibit
# Sequence (P50750 whole entry): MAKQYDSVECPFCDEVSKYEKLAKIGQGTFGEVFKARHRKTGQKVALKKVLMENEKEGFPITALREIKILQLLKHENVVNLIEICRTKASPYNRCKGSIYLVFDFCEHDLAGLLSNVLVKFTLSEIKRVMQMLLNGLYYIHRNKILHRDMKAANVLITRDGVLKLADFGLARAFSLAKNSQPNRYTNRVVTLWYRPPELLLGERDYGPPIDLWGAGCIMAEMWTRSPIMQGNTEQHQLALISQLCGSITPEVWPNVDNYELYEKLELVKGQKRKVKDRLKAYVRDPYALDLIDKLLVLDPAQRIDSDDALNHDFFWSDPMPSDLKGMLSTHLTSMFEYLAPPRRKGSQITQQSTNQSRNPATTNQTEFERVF
# TEST: HiBit Assay Protocol for CDK9 (HIBIT protein quantification, degradation)
# Format: cell-based
# EXPERIMENTAL_SETUP: 6 h, HEK293-CDK9-Hibit cells, compound treatment for 6 hours; read-out: CDK9 HIBIT Protein Quantification Maximum
MEASUREMENT_LABEL: Dmax (%)

* C[C@H](c1cccc(S(=O)(=O)N2CC[C@H](Nc3ncc4c(n3)N([C@@H]3CCC[C@@H](O)C3)C(=O)C43CC3)[C@H](F)C2)c1)N1CCN(c2ccc3c(N4CCC(=O)NC4=O)nn(C)c3c2)[C@@H](C)C1 | 23

[I] CC1CCCC1N1C(=O)C2(CC2)c2cnc(NC3CCN(S(=O)(=O)N4CCC5(CCCN5C(=O)CCc5cccc6c5n(C)c(=O)n6C5CCC(=O)NC5=O)C4)CC3)nc21 (stereo not drawn)
[II] CC1CCCC1N1C(=O)C2(CC2)c2cnc(NC3CCN(S(=O)(=O)N4CCC5(CCN(C(=O)CCCCCCCc6cccc7c6n(C)c(=O)n7C6CCC(=O)NC6=O)C5)C4)CC3)nc21 (stereo not drawn)
Incoming: Just tell me: smaller Dmax value, I or II ? Pick one; state its label.
Outgoing: II
(II: 10%, I: 26%)
